molecular target: Protein disulfide-isomerase A4 (Homo sapiens); assay: Inhibition of human recombinant ERp72 assessed as inhibition of E-GSH formation using Di-E-GSSG as substrate measured for 60 mins in presence of DTT by fluorescence based analysis
Sequence (P13667 whole entry): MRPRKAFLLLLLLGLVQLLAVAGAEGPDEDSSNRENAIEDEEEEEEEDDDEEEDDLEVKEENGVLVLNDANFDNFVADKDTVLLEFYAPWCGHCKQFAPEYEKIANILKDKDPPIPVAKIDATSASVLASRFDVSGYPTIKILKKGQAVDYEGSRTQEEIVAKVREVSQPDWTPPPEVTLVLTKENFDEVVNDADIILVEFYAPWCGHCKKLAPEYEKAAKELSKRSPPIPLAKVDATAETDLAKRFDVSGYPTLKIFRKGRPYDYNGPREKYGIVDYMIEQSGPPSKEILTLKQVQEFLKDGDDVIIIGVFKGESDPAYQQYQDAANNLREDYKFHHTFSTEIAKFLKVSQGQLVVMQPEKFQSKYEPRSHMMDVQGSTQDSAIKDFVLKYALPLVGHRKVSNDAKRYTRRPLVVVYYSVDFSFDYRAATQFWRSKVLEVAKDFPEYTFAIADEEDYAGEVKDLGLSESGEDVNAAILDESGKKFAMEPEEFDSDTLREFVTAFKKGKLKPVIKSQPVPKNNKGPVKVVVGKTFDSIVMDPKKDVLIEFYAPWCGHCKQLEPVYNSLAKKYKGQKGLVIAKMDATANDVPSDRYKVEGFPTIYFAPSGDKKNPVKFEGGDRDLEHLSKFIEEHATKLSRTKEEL
parameter: pIC50
// pIC50: -log10(molar conc.)

IN: Item `CC(=O)OC[C@H]1O[C@H](OC2=CC(=O)c3cccc(O)c3C2=O)[C@H](OC(C)=O)[C@@H](OC(C)=O)[C@@H]1OC(C)=O` has what recorded pIC50?
OUT: 5.40

---

Below is a list of entries, each paired with its recorded pIC50 value.
molecular target: Protein disulfide-isomerase (Homo sapiens, UniProt P07237); assay: Covalent inhibition of PDI (unknown origin) by insulin aggregation assay
Sequence (P07237 whole entry): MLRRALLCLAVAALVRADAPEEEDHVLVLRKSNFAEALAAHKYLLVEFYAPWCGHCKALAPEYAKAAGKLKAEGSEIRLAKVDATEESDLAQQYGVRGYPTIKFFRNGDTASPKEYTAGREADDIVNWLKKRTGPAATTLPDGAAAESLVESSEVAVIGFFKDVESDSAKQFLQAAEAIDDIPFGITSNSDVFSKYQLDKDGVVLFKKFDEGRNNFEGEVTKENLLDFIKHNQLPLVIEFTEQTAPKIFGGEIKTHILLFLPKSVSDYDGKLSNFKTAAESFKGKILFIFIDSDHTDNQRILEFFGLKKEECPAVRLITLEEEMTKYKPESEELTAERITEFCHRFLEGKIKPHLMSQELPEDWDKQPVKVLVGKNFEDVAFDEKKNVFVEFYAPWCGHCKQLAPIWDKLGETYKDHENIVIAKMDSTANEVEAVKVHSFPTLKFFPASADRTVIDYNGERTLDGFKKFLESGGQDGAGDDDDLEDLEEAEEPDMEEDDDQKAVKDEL
Interpret pIC50 as the negative base-10 log of the concentration measured in mol/L.

compound	pIC50
C#CC(=O)N(c1ccc(OC)cc1OC)C(C(=O)NCC(=O)OCC)c1cccs1 (configuration not stated)	5.00

Here's the next entry for you.
IN: Reported pIC50 for `C#CCCCNC(=O)[C@@H](CCNC(=O)[C@H](Cc1ccccc1)NC(=O)OC(C)(C)C)Cc1ccc(OS(=O)(=O)C=C)cc1` : what is it?
OUT: 5.77
